Recorded viability, T/C values for a group of molecules are listed next.
system: NCI-H841 complex tumor spheroid viability; assay: Anticancer human tumor NCI-H841 cell line growth inhibition; settings: second compound 0.3 µM; first compound 0.0316 µM; stronger effect = lower value;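 further: spheroids exposed to compounds for 7 days before readout; 100% = DMSO vehicle control wells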
I only need the number, in %, no unit after it.

The examples below pair each entry with its known result.
>>> value_measured("CC1COCCN1c1cc(-c2ccnn2C)c2ccnc(-c3ccn[nH]3)c2n1 (stereo unspecified) + CC[C@@]1(O)C(=O)OCc2c1cc1n(c2=O)Cc2cc3c(CN(C)C)c(O)ccc3nc2-1")
0.42
>>> value_measured("CC(C)n1c(=O)n(C)c2cnc3cc(F)c(-c4ccc(OCCCN5CCCCC5)nc4)cc3c21 + CC[C@@]1(O)C(=O)OCc2c1cc1n(c2=O)Cc2cc3c(CN(C)C)c(O)ccc3nc2-1")
2.29
>>> value_measured("Cc1cc(C)c(CNC(=O)c2cc(-c3ccc(CN4CCOCC4)cc3)cc3c2cnn3C2CCCC2)c(=O)[nH]1 + CC[C@@]1(O)C(=O)OCc2c1cc1n(c2=O)Cc2cc3c(CN(C)C)c(O)ccc3nc2-1")
7.2
>>> value_measured("COc1cc(C)[nH]c(=O)c1CN1CCc2c(Cl)cc(C(OC)C3COC3)c(Cl)c2C1=O (stereo unspecified) + CC[C@@]1(O)C(=O)OCc2c1cc1n(c2=O)Cc2cc3c(CN(C)C)c(O)ccc3nc2-1")
1.75
>>> value_measured("COc1ccc([C@@H](O)c2cc(-c3ncnc4cc(N5CCOCC5)ccc34)c(F)cc2Cl)nn1 + CC[C@@]1(O)C(=O)OCc2c1cc1n(c2=O)Cc2cc3c(CN(C)C)c(O)ccc3nc2-1")
1.74

Bench note: what viability, T/C did [2H]c1nc(C)nc([2H])c1-c1cc(NC[C@@H](C)c2cccc3c(C(=O)NC)ccnc23)ncn1 + CC[C@@]1(O)C(=O)OCc2c1cc1n(c2=O)Cc2cc3c(CN(C)C)c(O)ccc3nc2-1 show?
1.97

----------
Test system: NCI-H841 complex tumor spheroid viability
Experiment: Anticancer human tumor NCI-H841 cell line growth inhibition; active means viability on the fitted dose curve at most 10% of control; inactive means the rest;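 further: spheroids exposed to compounds for 7 days before readout; 100% = DMSO vehicle control wells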
Details: second compound 0.003 µM; first compound 0.316 µM
Description: Multicellular complex tumor spheroid response to DNA repair inhibitors in combination with DNA-damaging drugs This study explores the anticancer activities of DNA-damaging drugs and inhibitors of DNA damage repair, both as single agents and in combinations. […] Twenty-six patient-derived or established malignant cell lines were evaluated representing sarcoma, melanoma, small cell lung cancer (SCLC), non-small cell lung cancer (NSCLC), as well as bladder, ovarian and pancreatic cancers. […]
Result category, one only: true (1) (active), false (0) (inactive)

Look up the recorded call for [2H]c1nc(C)nc([2H])c1-c1cc(NC[C@@H](C)c2cccc3c(C(=O)NC)ccnc23)ncn1 + CC[C@@]1(O)C(=O)OCc2c1cc1n(c2=O)Cc2cc3c(CN(C)C)c(O)ccc3nc2-1 in this test.
false (0)

----------
tested on: NCI-H841 complex tumor spheroid viability; assay: Anticancer human tumor NCI-H841 cell line growth inhibition; conditions: second compound 1 µM; first compound 0.0949 µM; stronger effect = lower value;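 further: spheroids exposed to compounds for 7 days before readout; 100% = DMSO vehicle control wells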
PARAMETER MEASURED: viability, T/C (%)
I only need the number, in %, no unit after it.

The examples below pair each entry with its known result.
>>> value_measured("Cn1ncnc1[C@H]1c2n[nH]c(=O)c3cc(F)cc(c23)N[C@@H]1c1ccc(F)cc1 + Cn1nnc2c(C(N)=O)ncn2c1=O")
78.1
>>> value_measured("O=C(c1cc(Cc2n[nH]c(=O)c3ccccc23)ccc1F)N1CCN(C(=O)C2CC2)CC1 + Cn1nnc2c(C(N)=O)ncn2c1=O")
96.6
>>> value_measured("CNCc1ccc(-c2cc(-c3nc(-c4ccc(S(=O)(=O)C(C)C)cc4)cnc3N)on2)cc1 + Cn1nnc2c(C(N)=O)ncn2c1=O")
25.5

Bench note: what viability, T/C did Cc1sc2c(c1C)C(c1ccc(Cl)cc1)=NC(CC(=O)Nc1ccc(O)cc1)c1nnc(C)n1-2 (centres undefined) + Cn1nnc2c(C(N)=O)ncn2c1=O show?
74.8
